- target: murine DLL4 (murine) (UniProt Q9JI71)
- procedure.details: Biacore (SPR), muDLL4; reference is the parental DVD
Reported KD ratio (parental DVD/AM DVD) values for a set of binders

{"columns": ["binder", "u", "KD ratio (parental DVD/AM DVD)"],
 "data": [
  ["h1A11.1-F7-S2-SS-Anti-VEGF DVD-Ig (bispecific antibody, part only; not given: anti-VEGF domains, h1A11.1 VL, constant regions, part only) heavy, part: EVQLVESGGGLVQPGGSLRLSCAASGFTFRHFPMTWVRQAPGKGLEWVASISSSDGTINYRDSVKGRFTISRDNAKNSLYLQMNSLRAEDTAVYYCARGYYNSPFAYWGQGTLVTVSSASTKGP light, part: TVAAP", "fold", 59.2],
  ["h1A11.1-A04-S3-SS-Anti-VEGF DVD-Ig (bispecific antibody, part only; not given: anti-VEGF domains, h1A11.1 VL, constant regions, part only) heavy, part: EVQLVESGGGLVQPGGSLRLSCAASGFTFRHFPMAWVRQAPGKGLEWVATISSSDGATYYRDSVKGRFTISRDNAKSSLYLQMNSLRAEDTAVYYCARGYYNSPFAYWGQGTLVTVSSASTKGP light, part: TVAAP", "fold", 92.2],
  ["h1A11.1-A10-S3-SS-Anti-VEGF DVD-Ig (bispecific antibody, part only; not given: anti-VEGF domains, h1A11.1 VL, constant regions, part only) heavy, part: EVQLVESGGGLVQPGGSLRLSCAASGFTFRHFPMAWVRQAPGKGLEWVASISSSDGTSNYRDSVKGRFTISRDNAKSSLYLQMNSLRAEDTAVYYCARGYYNSPFAYWGQGTLVTVSSASTKGP light, part: TVAAP", "fold", 53.8],
  ["h1A11.1-B9-S2-SS-Anti-VEGF DVD-Ig (bispecific antibody, part only; not given: anti-VEGF domains, h1A11.1 VL, constant regions, part only) heavy, part: EVQLVESGGGLVQPGGSLRLSCAASGFTFSHFPMAWVRQAPGKGLEWVASISSSDSTTNYRDSVKGRFTISRDNAKNSLYLQMNSLRAEDTAVYYCARGYYNSPFAYWGQGTLVTVSSASTKGP light, part: TVAAP", "fold", 17.4],
  ["h1A11.1-G7-S2-SS-Anti-VEGF DVD-Ig (bispecific antibody, part only; not given: anti-VEGF domains, h1A11.1 VL, constant regions, part only) heavy, part: EVQLVESGGGLVQPGGSLRLSCAASGFTFNHFPMAWVRQAPGKGLEWVATISSSDWTPYYRDSVKGRFTISRDNAKNSLYLQMNSLRAEDTAVYYCARGYYNSPFAYWGQGTLVTVSSASTKGP light, part: TVAAP", "fold", 13.6],
  ["h1A11.1-H3-S2-SS-Anti-VEGF DVD-Ig (bispecific antibody, part only; not given: anti-VEGF domains, h1A11.1 VL, constant regions, part only) heavy, part: EVQLVESGGGLVQPGGSLRLSCAASGFTFRNFPMAWVRQAPGKGLEWVASISSSDGTTNYRDSVKGRFTISRDNAKSSLYLQMNSLRAEDTAVYYCARGYYNSPFAYWGQGTLVTVSSASTKGP light, part: TVAAP", "fold", 14.3]
]}
